procedure_text: Oral absorption test: capsule formulations given orally to fed beagles, concentration in plasma
Format: in vivo
test_settings: beagle, dog, plasma, po, 50 mg/kg, AUC (area under the blood concentration-time curve), average value, sampling up to 3 hours
observation_type: AUC (ng·h/mL)

{"compound": "CCOCOC[C@H](C[C@H](C)C(=O)NO)NC(=O)c1ccc(Oc2ccccc2)cc1 [Type-A crystal]", "observation_type": "AUC", "unit_label": "ng·h/mL", "value_measured": 5100}
